- SYSTEM_NAME: human recombinant dopamine D2 receptor (Homo sapiens (Human), UniProt P14416)
- Sequence (P14416 whole entry): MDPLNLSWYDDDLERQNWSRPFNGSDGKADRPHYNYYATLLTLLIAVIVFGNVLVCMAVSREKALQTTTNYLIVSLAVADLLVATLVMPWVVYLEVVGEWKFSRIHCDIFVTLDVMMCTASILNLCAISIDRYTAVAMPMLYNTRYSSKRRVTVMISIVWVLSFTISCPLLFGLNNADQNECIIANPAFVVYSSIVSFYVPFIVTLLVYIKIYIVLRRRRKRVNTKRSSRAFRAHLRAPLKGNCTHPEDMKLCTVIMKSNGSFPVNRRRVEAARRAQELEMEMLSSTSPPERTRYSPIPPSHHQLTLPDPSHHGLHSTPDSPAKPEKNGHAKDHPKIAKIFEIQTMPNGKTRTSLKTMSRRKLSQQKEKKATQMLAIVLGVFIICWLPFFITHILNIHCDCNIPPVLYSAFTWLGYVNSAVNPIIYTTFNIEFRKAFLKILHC
- MEASUREMENT_DESCRIPTION: Test of binding inhibition for the human dopamine D2 receptor ([3H]-Metylspiperone SPA binding)
- RECORDED_CONDITIONS: [3H]-Metylspiperone 1.2 nM, Jump-In HEK cell membranes, read-out: hD2_Ki
pKi: −log10 of the molar value.
METRIC_NAME: pKi

Recorded pKi for Cn1cc2c(C(=O)N[C@H]3CC[C@H](CCN4CCc5sc(COC(F)(F)F)nc5C4)CC3)cccc2n1 , please?
< 5.74

Would you kindly share the measured pKi for COc1cc(CC(=O)N[C@H]2CC[C@H](CCN3CCc4ccc(OCC(F)(F)F)nc4CC3)CC2)on1 ?
< 5.74

Entry Cc1ncc(CC(=O)N[C@H]2CC[C@H](CCN3CCc4ccc(N5CC(F)(F)C5)nc4CC3)CC2)s1 : reported pKi = ?
< 5.72

Recorded pKi of O=C(CCC(F)(F)F)N[C@H]1CC[C@H](CCN2CCc3nc(CCC(F)(F)F)sc3CC2)CC1 , please.
< 5.74
